- assaySystem: T1, CEA-derived … (SEQ ID NO: 71)-HLA-A*0201 complex (biotin on the C-terminal biotinylation tag (enzymatic, BirA))
- T1 construct: also called soluble biotinylated HLA-A2-peptide complex; not shown: C-terminal biotinylation tag that replaces the transmembrane and cytoplasmic domains
- testName: Biacore SPR, pMHC immobilised
- Protocol: SPR measures changes in refractive index expressed in response units (RU) near a sensor surface within a small flow cell, a principle that can be used to detect receptor ligand interactions and to analyse their affinity and kinetic parameters. The probe flow cells were prepared by immobilising the pMHC complexes in flow cells via biotin-tag binding. […]
resultType: Kd

| binder | val |
| --- | --- |
| SEQ ID NO 11 (receptor) MAGHLPKPTLWAEPGSVITMDQPVTLRCQGGQETQEYRLYREKKTAPWITRIPQELVKKGQFPIPSITWEHAGRYRCYYGSDTSQWSASSDPLELVVTGVYIKPTLSAQPSPVVNSGGNVTLQCDSQVAFDGFILCKEGEDEHPQCLNSQPHARGSSRAIFSVGPVSPSRRWWYRCYAYVDWFPYEWSLPSDLLELDVDG | ≤ 1000 nM |
| SEQ ID NO 18 (receptor) MAGHLPKPTLWAEPGSVITMDQPVTLRCQGGQETQEYRLYREKKTAPWITRIPQELVKKGQFPIPSITWEHAGRYRCYYGSDTSQWSASSDPLELVVTGVYIKPTLSAQPSPVVNSGGNVTLQCDSQVAFDGFILCKEGEDEHPQCLNSQPHARGSSRAIFSVGPVSPSRRWWYRCYAYMSWAPYEWSLPSDLLELDVDG | ≤ 1000 nM |

Kindly review the next binder as well.
Fill in the blank: the reported Kd of SEQ ID NO 29 (receptor) MHLPKPTLWAEPGSVITLQSPVTLRCQGGQETQQYRLYREKKTAPWITRIPQELVKKGQFPIPSITWEHAGRYRCYYGSDTRQWSASSDPLELVVTGVYIKPTLSAQPSPVVNSGGNVTLQCDSQVAFDGFILCKEGEDDHPQCLNSQPHARGSSRAIFSVGPVSPSRRWRYRCYAYMSWSPYEWSLPSDLLELDVDG is ____. ≤ 1000 nM
